test system: PXR homodimer (NR concentration 270 nM); assay: PBM binding z-score (relative to random genomic background probes); higher = stronger binding; sequences stand for … in GC…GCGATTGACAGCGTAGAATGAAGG
MEASURED_QUANTITY: PBM binding z-score
// no unit string in output, number only

// solved cases for PBM binding z-score follow
[[record]]
input_sequence = "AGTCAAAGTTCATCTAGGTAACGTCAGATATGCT"
measured_quantity = "PBM binding z-score"
observed_value = 7.19

[[record]]
input_sequence = "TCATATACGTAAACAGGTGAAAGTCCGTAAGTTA"
measured_quantity = "PBM binding z-score"
observed_value = 0.801

[[record]]
input_sequence = "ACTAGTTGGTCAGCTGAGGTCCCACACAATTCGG"
measured_quantity = "PBM binding z-score"
observed_value = -0.424

[[record]]
input_sequence = "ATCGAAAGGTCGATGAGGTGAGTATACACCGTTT"
measured_quantity = "PBM binding z-score"
observed_value = 1.07

[[record]]
input_sequence = "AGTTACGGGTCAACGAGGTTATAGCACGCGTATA"
measured_quantity = "PBM binding z-score"
observed_value = 2.21

[[record]]
input_sequence = "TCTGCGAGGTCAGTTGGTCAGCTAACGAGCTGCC"
measured_quantity = "PBM binding z-score"
observed_value = 0.146

[[record]]
input_sequence = "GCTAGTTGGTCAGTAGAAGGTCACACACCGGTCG"
measured_quantity = "PBM binding z-score"
observed_value = 1.11

[[record]]
input_sequence = "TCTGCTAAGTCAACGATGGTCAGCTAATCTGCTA"
measured_quantity = "PBM binding z-score"
observed_value = -1.18


Exercise: Specify measured PBM binding z-score for "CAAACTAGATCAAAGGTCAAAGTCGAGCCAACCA" .
Solution: 1.84

Exercise: Give PBM binding z-score for the following sequence: "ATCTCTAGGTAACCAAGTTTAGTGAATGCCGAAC"
Solution: 0.333

Exercise: For the sequence "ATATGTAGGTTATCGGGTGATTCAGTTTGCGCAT" , give its measured PBM binding z-score value.
Solution: 1.12

Exercise: Specify measured PBM binding z-score for "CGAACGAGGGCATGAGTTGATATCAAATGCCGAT" .
Solution: -0.013

Exercise: Entry "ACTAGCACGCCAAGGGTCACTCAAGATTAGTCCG" needs its PBM binding z-score filled in; supply it.
Solution: 0.0958

Exercise: Please report PBM binding z-score for the following sequence: "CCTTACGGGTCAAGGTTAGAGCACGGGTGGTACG"
Solution: -0.133

Exercise: Look up and report measured PBM binding z-score for this entry: "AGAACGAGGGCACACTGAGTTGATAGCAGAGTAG"
Solution: 0.305

Exercise: Identify PBM binding z-score associated with the sequence "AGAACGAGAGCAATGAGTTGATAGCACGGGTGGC"
Solution: -0.202

Exercise: Consider the sequence "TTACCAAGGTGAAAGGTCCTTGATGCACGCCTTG" . State its measured PBM binding z-score.
Solution: -0.666

Exercise: Indicate its recorded PBM binding z-score; the sequence in question is "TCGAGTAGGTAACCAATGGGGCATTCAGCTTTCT"
Solution: -0.877

Exercise: Kindly indicate its recorded PBM binding z-score. Item: "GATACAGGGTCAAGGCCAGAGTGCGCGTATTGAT"
Solution: 0.307

Exercise: Kindly indicate its recorded PBM binding z-score. Item: "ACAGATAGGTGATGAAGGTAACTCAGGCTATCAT"
Solution: -0.296

Exercise: Hello, please tell me recorded PBM binding z-score for this one: "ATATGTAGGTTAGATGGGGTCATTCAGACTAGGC"
Solution: 4.01

Exercise: Provide only the value of recorded PBM binding z-score for "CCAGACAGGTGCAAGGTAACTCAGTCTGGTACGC"
Solution: -0.237

Exercise: For the sequence "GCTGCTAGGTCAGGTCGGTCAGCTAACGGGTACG" , give its reported PBM binding z-score.
Solution: -0.37

Exercise: Quote PBM binding z-score reported for "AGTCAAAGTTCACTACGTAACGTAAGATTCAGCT" please.
Solution: 2.5

Exercise: Tell us which PBM binding z-score value is on record for "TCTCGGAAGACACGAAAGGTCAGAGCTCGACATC"
Solution: 0.388

Exercise: Give recorded PBM binding z-score. "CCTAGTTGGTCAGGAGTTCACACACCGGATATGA"
Solution: 3.68
